# measured-on: Protein RecA (Mycobacterium tuberculosis, UniProt P9WHJ3)
# method-notes: Fluorescence Cell-Free Homogeneous Dose Retest to Identify Inhibitors of RecA-Intein Splicing Activity. [Related pubchem assays (depositor defined):AID2097, AID2223, AID489010, AID492950]
# Format: functional
Active and inactive are the calls of the source.
Mark one answer only. Choices: active, inactive

>  <structure-smiles-string>
CN(C(=O)c1cccc(COc2ccc(Cl)cc2Cl)c1)c1ccccc1

>  <measured-on>
Protein RecA (Mycobacterium tuberculosis, UniProt P9WHJ3)

>  <label-class>
active

$$$$
>  <structure-smiles-string>
COC(=O)c1c(NC(=O)/C=C/C(=O)O)sc(Cc2ccccc2)c1C

>  <measured-on>
Protein RecA (Mycobacterium tuberculosis, UniProt P9WHJ3)

>  <label-class>
active

$$$$

[in] Just curious, what result did Cc1nn(CCc2nn[nH]n2)c2nc(-c3ccc(C4CCCCC4)cc3)cc(C(F)(F)F)c12 get here?
[out] active

[in] Just curious, what result did SC1=Nc2ccccc2C1 get here?
[out] active

[in] Just curious, what result did O=C(Oc1ccc(N2C(=O)CCC2=O)cc1)c1ccco1 get here?
[out] active

[in] Just curious, what result did COc1cc(C(c2c(C)n[nH]c2O)c2c(C)n[nH]c2O)cc(OC)c1OC get here?
[out] active

[in] Just curious, what result did Cn1nc(-c2ccc(Cl)cc2)nc2c(=O)n(C)c(=O)nc1-2 get here?
[out] active

[in] Just curious, what result did CC(=O)N1CCC2(CC1)C(C#N)=C(N)Oc1[nH]nc(CSc3ccc(C)cc3)c12 get here?
[out] active

[in] Just curious, what result did Oc1nc2ccc(Cl)cc2c(-c2ccccc2)c1SC(=S)N1CCCCC1 get here?
[out] inactive

[in] Just curious, what result did Nc1cccc2c(O)cccc12 get here?
[out] active

[in] Just curious, what result did Cc1ccccc1CS(=O)(=O)c1nnc([C@H](Cc2ccccc2)NC(=O)OC(C)(C)C)o1 get here?
[out] active

[in] Just curious, what result did O=C(CCl)N(c1ccc(Cl)cc1)c1c[nH]c2ccccc12 get here?
[out] active

[in] Just curious, what result did COC(=O)c1ccc(-n2c(C)cc(C(=O)CCl)c2C)cc1 get here?
[out] active

[in] Just curious, what result did O=[N+]([O-])c1cccc(/N=C/C2=C(O)c3ccccc3CC2)c1 get here?
[out] active

[in] Just curious, what result did CCCc1c(C(=O)NNc2cccc(Cl)c2)cnn1-c1ccccc1 get here?
[out] inactive

[in] Just curious, what result did CC(C)=CCC/C(C)=C/Cc1c(O)ccc(C(=O)/C=C/c2ccc(O)cc2)c1O get here?
[out] active

---

# reported EC50; entries follow
# method-notes: NIH-3T3 fibroblast cytotoxicity, dose response, cytotoxicity control, cell-based, fluorescence, Alamar Blue, secondary assay (AID 2327);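 also: NIH-3T3 mouse fibroblasts cultured with fluconazole at 8 µg/mL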
# Type: functional
Activity calls are given as the source filed them.

[in] Entry under review: Cc1ccc(NC(=S)NC(=O)C2CC2)cc1Cl . Reported EC50?
[out] > 160 µM (inactive)

[in] Entry under review: O=C(Oc1ccc(Cl)c2cccnc12)c1cccc([N+](=O)[O-])c1 . Reported EC50?
[out] 19.9 µM (inconclusive)

[in] Entry under review: O=C(Nc1ccccc1N1CCOCC1)c1ccc(S(=O)(=O)NCc2ccco2)cc1 . Reported EC50?
[out] > 150 µM (inactive)

[in] Entry under review: Cc1ccc([N+](=O)[O-])cc1-c1[nH]c(-c2ccc(O)c(O)c2)nc1-c1ccccc1 . Reported EC50?
[out] 57.8 µM (active)

---

# measured-on: Fatty acid synthase (Homo sapiens)
# method-notes: FAS thioesterase domain inhibitors, dose response, biochemical, endpoint fluorescence intensity, uHTS hits (AID 624327);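 also: fluorescence from hydrolysis of an O-methyl fluorescein acyl ester substrate by the enzyme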
# Assay type: functional
Active and inactive are the calls of the source.
measured-attribute: IC50

Field: example entries. Status: answers known.
>  <structure-smiles-string>
O=C(CCc1ccccc1)OCC(=O)c1cccc([N+](=O)[O-])c1

>  <measured-on>
Fatty acid synthase (Homo sapiens)

>  <IC50>
11.3 µM (active)

$$$$
>  <structure-smiles-string>
O=C(COc1ccc([N+](=O)[O-])cc1)N1CCc2ccccc2C1

>  <measured-on>
Fatty acid synthase (Homo sapiens)

>  <IC50>
6.92 µM (active)

$$$$
>  <structure-smiles-string>
Cc1ccccc1CS(=O)(=O)c1nnc([C@H](Cc2ccccc2)NC(=O)OC(C)(C)C)o1

>  <measured-on>
Fatty acid synthase (Homo sapiens)

>  <IC50>
6.74 µM (active)

$$$$
>  <structure-smiles-string>
O=C(Cn1cc(C(=O)C2CC2)c2ccccc21)NCc1ccc2c(c1)OCO2

>  <measured-on>
Fatty acid synthase (Homo sapiens)

>  <IC50>
14.3 µM (active)

$$$$

Please turn your attention to the following entry.
[in] Entry under review: O=[N+]([O-])c1cccc(NC(S)=NCCc2ccccc2)c1 . Reported IC50?
[out] 10.1 µM (active)

---

# measured-on: Cytochrome P450 3A4 (Homo sapiens, UniProt P08684)
# Sequence (P08684 whole entry): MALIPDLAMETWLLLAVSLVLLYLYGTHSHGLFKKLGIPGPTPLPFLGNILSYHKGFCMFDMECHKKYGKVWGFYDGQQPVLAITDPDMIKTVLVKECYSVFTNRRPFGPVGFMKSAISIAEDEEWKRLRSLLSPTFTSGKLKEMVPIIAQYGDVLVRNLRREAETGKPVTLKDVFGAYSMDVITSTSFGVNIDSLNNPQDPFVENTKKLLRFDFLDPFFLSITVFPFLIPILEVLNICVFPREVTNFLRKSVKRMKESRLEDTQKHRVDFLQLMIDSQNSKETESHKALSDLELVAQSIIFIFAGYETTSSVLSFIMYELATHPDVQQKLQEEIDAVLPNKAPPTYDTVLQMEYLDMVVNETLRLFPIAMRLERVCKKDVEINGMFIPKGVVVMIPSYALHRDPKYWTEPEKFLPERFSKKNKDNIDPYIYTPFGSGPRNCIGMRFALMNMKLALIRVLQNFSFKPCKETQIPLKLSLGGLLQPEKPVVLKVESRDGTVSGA
# assay-setup: Potency
# reported AC50; entries follow

Field: example entries. Status: answers known.
>  <compound>
Nc1ccn([C@@H]2O[C@H](CO)[C@@H](OP(=O)(O)O)[C@H]2O)c(=O)n1

>  <measured-on>
Cytochrome P450 3A4 (Homo sapiens, UniProt P08684)

>  <assay-result>
7.94 µM (inconclusive)

$$$$
>  <compound>
CCCn1c(-c2ccc(F)cc2)nc2c(NCCN3CCCCC3)nc(C)nc21

>  <measured-on>
Cytochrome P450 3A4 (Homo sapiens, UniProt P08684)

>  <assay-result>
15.8 µM (inconclusive)

$$$$
>  <compound>
COc1ccc(-c2c(O)c3c(OC)c4c(cc3oc2=O)OC(C)(C)CC4)cc1 [DIHYDROROBUSTIC ACID]

>  <measured-on>
Cytochrome P450 3A4 (Homo sapiens, UniProt P08684)

>  <assay-result>
25.1 µM (inconclusive)

$$$$
>  <compound>
COc1ccc(OC)c(-c2ccccc2/C=N/NS(=O)(=O)c2ccc(C)cc2)c1

>  <measured-on>
Cytochrome P450 3A4 (Homo sapiens, UniProt P08684);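 also: confirmatory qHTS run detecting inhibitors and substrates of CYP3A4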

>  <assay-result>
3.16 µM (inconclusive)

$$$$

Please turn your attention to the following entry.
[in] Can you look up AC50 on Cytochrome P450 3A4 (Homo sapiens, UniProt P08684) for Nc1cc(=O)[nH]c(=O)n1Cc1ccccc1 ?
[out] 25.1 µM (inconclusive)

---

# measured-on: UniProt Q9BQF6
# Sequence (Q9BQF6 whole entry): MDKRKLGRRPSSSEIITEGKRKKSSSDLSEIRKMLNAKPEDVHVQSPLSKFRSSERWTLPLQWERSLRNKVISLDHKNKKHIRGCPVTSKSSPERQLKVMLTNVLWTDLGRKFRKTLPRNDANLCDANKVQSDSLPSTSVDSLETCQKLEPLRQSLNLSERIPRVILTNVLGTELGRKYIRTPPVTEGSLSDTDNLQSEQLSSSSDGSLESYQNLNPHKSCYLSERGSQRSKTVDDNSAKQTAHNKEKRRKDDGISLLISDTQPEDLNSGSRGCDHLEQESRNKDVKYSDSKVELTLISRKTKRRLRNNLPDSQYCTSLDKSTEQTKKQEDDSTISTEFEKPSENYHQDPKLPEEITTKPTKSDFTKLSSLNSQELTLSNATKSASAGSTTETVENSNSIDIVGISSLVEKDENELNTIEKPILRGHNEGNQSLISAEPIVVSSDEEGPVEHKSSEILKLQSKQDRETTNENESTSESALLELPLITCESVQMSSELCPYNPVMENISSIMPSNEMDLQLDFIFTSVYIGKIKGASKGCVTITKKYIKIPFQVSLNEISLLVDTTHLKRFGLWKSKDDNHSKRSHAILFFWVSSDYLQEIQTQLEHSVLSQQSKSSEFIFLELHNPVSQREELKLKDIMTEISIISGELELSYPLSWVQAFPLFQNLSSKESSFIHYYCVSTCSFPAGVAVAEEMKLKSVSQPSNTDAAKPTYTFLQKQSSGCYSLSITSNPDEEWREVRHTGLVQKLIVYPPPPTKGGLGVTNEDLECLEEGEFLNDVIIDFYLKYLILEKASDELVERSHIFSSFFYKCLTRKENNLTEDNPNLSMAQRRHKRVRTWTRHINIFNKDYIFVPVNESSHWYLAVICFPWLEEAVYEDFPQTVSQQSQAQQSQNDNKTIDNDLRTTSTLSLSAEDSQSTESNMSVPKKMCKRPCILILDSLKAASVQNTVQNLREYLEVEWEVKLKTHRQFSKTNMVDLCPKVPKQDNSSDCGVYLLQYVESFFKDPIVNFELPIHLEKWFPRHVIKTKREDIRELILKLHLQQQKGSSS
# Type: functional
Calls of active or inactive are those of the source.
measured-attribute: IC50

Field: example entries. Status: answers known.
>  <structure-smiles-string>
Cc1cccc(OCc2cc(-c3ccccc3)no2)c1C

>  <IC50>
5.47 µM (active)

$$$$
>  <structure-smiles-string>
O=C(Cn1cc(SCc2ccc(Cl)cc2)c2ccccc21)N1CCOCC1

>  <IC50>
6.14 µM (active)

$$$$

[in] Entry under review: Cc1ccccc1-c1nnc(-c2ccccc2C)o1 . Reported IC50?
[out] 12.1 µM (active)

[in] Entry under review: O=C(COc1ccc(Cc2ccccc2)cc1)c1ccc(F)cc1 . Reported IC50?
[out] 15.6 µM (active)

[in] Entry under review: Cc1cccnc1Nc1nc(-c2ccc(O)cc2O)cs1 . Reported IC50?
[out] 3.79 µM (active)

[in] Entry under review: CCCCNc1cc(NC(C)=O)cc2cc(OC)c(OC)cc12 . Reported IC50?
[out] 19.9 µM (active)

---

# measured-on: Ras and Rab interactor 1/Tyrosine-protein kinase ABL1 (Homo sapiens, UniProt P00519+Q13671)
# Sequence (P00519 whole entry): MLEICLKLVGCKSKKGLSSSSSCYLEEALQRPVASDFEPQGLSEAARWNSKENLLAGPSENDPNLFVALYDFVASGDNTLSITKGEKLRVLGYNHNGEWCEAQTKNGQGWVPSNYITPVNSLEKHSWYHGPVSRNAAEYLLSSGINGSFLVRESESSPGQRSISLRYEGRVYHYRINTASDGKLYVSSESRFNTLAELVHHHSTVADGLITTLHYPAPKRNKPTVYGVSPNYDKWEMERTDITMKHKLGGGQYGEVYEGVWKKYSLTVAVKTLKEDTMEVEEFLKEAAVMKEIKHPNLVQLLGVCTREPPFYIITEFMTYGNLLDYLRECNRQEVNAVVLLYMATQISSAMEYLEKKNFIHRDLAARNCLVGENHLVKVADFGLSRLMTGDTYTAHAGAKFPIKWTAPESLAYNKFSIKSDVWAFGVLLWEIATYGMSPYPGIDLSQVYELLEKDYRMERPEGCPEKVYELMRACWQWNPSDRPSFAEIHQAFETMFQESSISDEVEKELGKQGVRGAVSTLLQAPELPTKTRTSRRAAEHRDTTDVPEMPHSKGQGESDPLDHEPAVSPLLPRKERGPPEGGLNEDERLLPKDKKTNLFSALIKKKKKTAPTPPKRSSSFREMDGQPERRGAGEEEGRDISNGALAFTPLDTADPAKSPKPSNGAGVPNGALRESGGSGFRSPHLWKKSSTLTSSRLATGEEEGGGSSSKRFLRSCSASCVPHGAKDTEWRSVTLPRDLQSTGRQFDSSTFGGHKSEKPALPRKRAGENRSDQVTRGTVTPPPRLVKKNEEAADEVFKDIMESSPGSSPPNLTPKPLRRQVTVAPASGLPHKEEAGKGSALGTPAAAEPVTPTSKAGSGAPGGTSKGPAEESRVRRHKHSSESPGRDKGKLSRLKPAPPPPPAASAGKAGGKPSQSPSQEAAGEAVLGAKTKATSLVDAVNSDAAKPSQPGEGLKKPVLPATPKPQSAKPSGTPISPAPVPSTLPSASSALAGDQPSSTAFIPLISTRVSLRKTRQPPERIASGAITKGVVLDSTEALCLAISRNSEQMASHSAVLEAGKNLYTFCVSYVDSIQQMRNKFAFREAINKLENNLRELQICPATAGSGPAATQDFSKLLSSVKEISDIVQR
# Sequence (Q13671 whole entry): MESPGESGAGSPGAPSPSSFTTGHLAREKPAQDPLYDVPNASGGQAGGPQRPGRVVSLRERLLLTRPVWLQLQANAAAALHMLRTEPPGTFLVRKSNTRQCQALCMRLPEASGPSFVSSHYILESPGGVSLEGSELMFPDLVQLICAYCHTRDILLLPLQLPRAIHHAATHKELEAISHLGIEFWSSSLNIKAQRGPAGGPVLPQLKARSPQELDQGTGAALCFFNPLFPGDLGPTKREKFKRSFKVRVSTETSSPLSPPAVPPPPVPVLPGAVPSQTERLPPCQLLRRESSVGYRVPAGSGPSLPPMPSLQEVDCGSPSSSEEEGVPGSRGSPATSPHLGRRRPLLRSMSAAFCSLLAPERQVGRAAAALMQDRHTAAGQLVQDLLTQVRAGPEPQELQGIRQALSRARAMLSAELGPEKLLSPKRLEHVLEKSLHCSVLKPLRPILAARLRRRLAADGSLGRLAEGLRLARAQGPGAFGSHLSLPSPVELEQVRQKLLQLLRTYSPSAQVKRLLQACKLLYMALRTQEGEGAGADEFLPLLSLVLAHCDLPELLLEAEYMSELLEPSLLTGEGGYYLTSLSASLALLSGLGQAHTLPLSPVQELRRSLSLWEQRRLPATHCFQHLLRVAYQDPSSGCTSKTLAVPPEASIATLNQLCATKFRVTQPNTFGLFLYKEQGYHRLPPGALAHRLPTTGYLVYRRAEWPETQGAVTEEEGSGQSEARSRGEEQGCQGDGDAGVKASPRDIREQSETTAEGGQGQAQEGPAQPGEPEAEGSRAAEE
# Format: functional
Activity calls are given as the source filed them.
Mark one answer only. Choices: active, inactive

Worked set:
>  <compound>
CC1NC(=O)NC1CCCCCC(=O)Nc1ccc(F)c(Cl)c1 (centres undefined)

>  <label-class>
active

$$$$
>  <compound>
O=C(Cc1ccc(NC(=O)C2CCN(C(=O)C3CCCC3)CC2)cc1)Nc1ccc(C(=O)N2CCOCC2)cc1

>  <label-class>
active

$$$$
>  <compound>
Oc1cc(OCc2ccccc2)ccn1

>  <label-class>
active

$$$$

We next turn to a different compound, shown below.
[in] Just curious, what result did COC(=O)c1cccc(NC(=O)c2ccc[n+]([O-])c2)c1 get here?
[out] inactive

---

# reported IC50; entries follow
# measured-on: Calpain-2 catalytic subunit (Sus scrofa, UniProt P43367)
# Sequence (P43367 whole entry): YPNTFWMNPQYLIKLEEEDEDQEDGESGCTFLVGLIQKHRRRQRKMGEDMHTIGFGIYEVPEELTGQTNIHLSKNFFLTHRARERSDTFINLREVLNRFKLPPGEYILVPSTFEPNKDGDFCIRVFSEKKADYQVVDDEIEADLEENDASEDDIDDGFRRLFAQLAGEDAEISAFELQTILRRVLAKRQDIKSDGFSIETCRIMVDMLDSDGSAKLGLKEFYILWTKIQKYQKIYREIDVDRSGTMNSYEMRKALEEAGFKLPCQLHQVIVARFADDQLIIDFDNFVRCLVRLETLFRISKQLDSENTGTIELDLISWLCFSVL
# method-notes: pig calpain II inhibitor potency, dose response, biochemical, fluorogenic peptide substrate (AID 1420)
# Format: functional

[in] Entry under review: Cc1ccc(N/N=C2\CCS(=O)(=O)c3sccc32)cc1 . Reported IC50?
[out] > 50 µM (not active)

[in] Entry under review: CCOC(=O)c1cnc2c(Cl)ccc(Cl)c2c1O . Reported IC50?
[out] 17.3 µM (not active)
